- studySystem: NHERF4_4, Q86UT5
- Sequence (Q86UT5 464-550): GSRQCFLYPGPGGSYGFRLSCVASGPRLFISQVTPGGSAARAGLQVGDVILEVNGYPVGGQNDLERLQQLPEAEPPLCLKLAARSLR
- assayRemarks: holdup assay
- Design: key: below the threshold = too weak to quantify, mostly under pKd 3.1 to 4
- conditionDetails: plain residues with an end cap or a label only (N-terminal biotin on a linker: ado-ado)
endpointLabel: pKd

Consider the following illustrative entries.
{"binder": "AEASVACSLC [PTGIR, P43119]", "endpointLabel": "pKd", "result": "below the threshold"}
{"binder": "NNNVVKVDSV [MTNR1A, P48039]", "endpointLabel": "pKd", "result": "below the threshold"}
{"binder": "DRIQSCLSDA [SBF1, O95248]", "endpointLabel": "pKd", "result": "below the threshold"}
{"binder": "QLSFNTDTLC [ABCA2, Q9BZC7]", "endpointLabel": "pKd", "result": "below the threshold"}
{"binder": "RFQQRMQTHV [KIRREL1, Q96J84]", "endpointLabel": "pKd", "result": "below the threshold"}

For the binder SRSVVESDEL [MYPN, Q86TC9] , report pKd.
below the threshold

For the binder QRPYRRGSEI [KCNJ18, B7U540] , report pKd.
below the threshold
